test.system: mouse CCK-B R (Mus musculus)
Construct: expressed in transfected cells
Sequence (P56481 whole entry): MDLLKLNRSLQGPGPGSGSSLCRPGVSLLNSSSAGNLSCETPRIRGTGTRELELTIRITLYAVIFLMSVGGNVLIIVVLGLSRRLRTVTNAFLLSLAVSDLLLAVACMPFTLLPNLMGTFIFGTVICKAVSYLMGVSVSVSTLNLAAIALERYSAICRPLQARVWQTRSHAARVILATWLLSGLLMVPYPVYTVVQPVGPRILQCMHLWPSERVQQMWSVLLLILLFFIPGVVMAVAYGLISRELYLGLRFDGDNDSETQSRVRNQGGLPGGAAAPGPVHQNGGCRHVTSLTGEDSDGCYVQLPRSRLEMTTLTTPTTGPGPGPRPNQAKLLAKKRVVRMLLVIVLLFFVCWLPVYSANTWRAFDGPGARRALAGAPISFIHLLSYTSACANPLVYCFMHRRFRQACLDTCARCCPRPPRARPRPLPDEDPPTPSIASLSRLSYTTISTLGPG
assay.notes: Mouse CCK-B receptor efficacy assay (AlphaScreen SureFire p-ERK)
Assay type: cell-based
assay.conditions: Table 1; HEK293 cells expressing mouse CCK-B R, p-ERK; read-out: mCCK-B R EC50
# EC50 annotations
Output should be the measured figure followed by the unit it is expressed in.

Exam item: Please state recorded EC50 (tested on mouse CCK-B R (Mus musculus)) of H-HAEGTFTSDVSSYLEGQAAKEFIAWLVKGRSKKQGPWLEEEEEAYGWLDF-NH2 [Compound 40, GLP-1(7-36)-SKK-[Gln1,Leu15]Gastrin17]
Marked response: 58.6 nM

Exam item: Thanks! And H-HAEGTFTSDVSSYLEGQAAKEFIAWLVKGRKQGPWLEEEEEAYGWLDF-NH2 [Compound 38, GLP-1(7-36)-K-[Gln1,Leu15]Gastrin17] ?
Marked response: 114 nM

Exam item: Thanks! And H-HAEGTFTSDVSSYLEGQAAKEFIAWLVKGRQGPWLEEEEEAYGWLDF-NH2 [Compound 37, GLP-1(7-36)-[Gln1,Leu15]Gastrin17] ?
Marked response: 73.1 nM

Exam item: Thanks! And H-HAEGTFTSDVSSYLEGQAAKEFIAWLVKGRAAAQGPWLEEEEEAYGWLDF-NH2 [Compound 39, GLP-1(7-36)-AAA-[Gln1,Leu15]Gastrin17] ?
Marked response: 54.1 nM

----------
test.system: mouse CCK-B R (Mus musculus)
Construct: expressed in transfected cells
assay.notes: Mouse CCK-B receptor efficacy assay (AlphaScreen SureFire p-ERK)
Assay type: cell-based
Ends that are not written are not given here.
quantity.name: pEC50
Convention used: pEC50 is expressed as -log10 of the molar concentration.

Exam item: Please state recorded pEC50 (tested on mouse CCK-B R (Mus musculus)) of QGPWLEEEEEAYGWLDF-NH2 [h[Gln1,Leu15]Gastrin17, reference compound]
Marked response: 7.74

----------
test.system: human GLP-1 R (Homo sapiens)
Construct: expressed in transfected cells
assay.notes: Human GLP-1 receptor efficacy assay (cAMP induction, FlashPlate)
Type: cell-based
assay.conditions: Table 2; read-out: hGLP-1 R EC50
quantity.name: pEC50
Convention used: pEC50 is expressed as -log10 of the molar concentration.

Exam item: # pEC50 lookup, item H-HGEGTFTSELSKYLEEEAVRLFIEFLKWLDF-NH2 [Compound 96]
Marked response: 8.92

Exam item: Thanks! And H-HGEGTFTSELSKYLEEEAVRLFIEFLKYGWLDF-NH2 [Compound 101] ?
Marked response: 9.96

----------
test.system: human GLP-1 R (Homo sapiens, UniProt P43220)
Construct: expressed in transfected cells
Sequence (P43220 24-463): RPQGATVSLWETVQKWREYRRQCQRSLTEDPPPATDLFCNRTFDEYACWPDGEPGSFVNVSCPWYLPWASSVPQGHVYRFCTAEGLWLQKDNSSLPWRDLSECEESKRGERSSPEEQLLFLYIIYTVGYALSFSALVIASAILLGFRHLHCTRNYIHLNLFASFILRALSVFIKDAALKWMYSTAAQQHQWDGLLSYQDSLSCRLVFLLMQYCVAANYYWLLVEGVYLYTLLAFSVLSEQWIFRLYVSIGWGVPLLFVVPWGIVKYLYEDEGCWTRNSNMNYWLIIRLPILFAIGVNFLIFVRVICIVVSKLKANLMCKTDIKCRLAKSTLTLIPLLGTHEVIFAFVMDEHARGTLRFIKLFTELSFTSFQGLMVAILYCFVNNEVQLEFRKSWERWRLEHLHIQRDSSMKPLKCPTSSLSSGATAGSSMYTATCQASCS
assay.notes: Human GLP-1 receptor efficacy assay (cAMP induction, FlashPlate)
Assay type: cell-based
assay.conditions: Table 1; HEK293 cells expressing human GLP-1 R, cAMP; read-out: hGLP-1 R EC50
quantity.name: EC50
Output should be the measured figure followed by the unit it is expressed in.

Worked cases, EC50 given:
>>> result("H-HAEGTFTSDVSSYLEGQAAKEFIAWLVKGRAAAQGPWLEEEEEAYGWLDF-NH2 [Compound 39, GLP-1(7-36)-AAA-[Gln1,Leu15]Gastrin17]")
"0.114 nM"
>>> result("H-HAEGTFTSDVSSYLEGQAAKEFIAWLVKGRQGPWLEEEEEAYGWLDF-NH2 [Compound 37, GLP-1(7-36)-[Gln1,Leu15]Gastrin17]")
"0.145 nM"

Exam item: Please state recorded EC50 (tested on human GLP-1 R (Homo sapiens, UniProt P43220)) of H-HAEGTFTSDVSSYLEGQAAKEFIAWLVKGRKQGPWLEEEEEAYGWLDF-NH2 [Compound 38, GLP-1(7-36)-K-[Gln1,Leu15]Gastrin17]
Marked response: 0.0842 nM

Exam item: Thanks! And H-HAEGTFTSDVSSYLEGQAAKEFIAWLVKGRSKKQGPWLEEEEEAYGWLDF-NH2 [Compound 40, GLP-1(7-36)-SKK-[Gln1,Leu15]Gastrin17] ?
Marked response: 0.116 nM

The measured values listed here are drawn from patent US10406207B2.
